Conditions Used: in isobutanol, 298.15 K
Outcome Measure: solubility (mole fraction)
Lab note: jot the number down without any unit.

QUERY: Please look up its solubility (mole fraction): Cc1cc(C)c(C(=O)P(=O)(c2ccccc2)c2ccccc2)c(C)c1
RESULT: 0.187

====

Conditions Used: in n-butanol, 303.15 K
Outcome Measure: solubility (mole fraction)
Lab note: jot the number down without any unit.

QUERY: Please look up its solubility (mole fraction): Cc1cc(C)c(C(=O)P(=O)(c2ccccc2)c2ccccc2)c(C)c1
RESULT: 0.236

====

Conditions Used: in acetonitrile, 273.15 K
Outcome Measure: solubility (mole fraction)
Lab note: jot the number down without any unit.

QUERY: Please look up its solubility (mole fraction): Cc1cc(C)c(C(=O)P(=O)(c2ccccc2)c2ccccc2)c(C)c1
RESULT: 0.0242

====

Conditions Used: in acetonitrile, 298.15 K
Outcome Measure: solubility (mole fraction)
Lab note: jot the number down without any unit.

QUERY: Please look up its solubility (mole fraction): Cc1cc(C)c(C(=O)P(=O)(c2ccccc2)c2ccccc2)c(C)c1
RESULT: 0.144

====

Conditions Used: in ethanol, 278.15 K
Outcome Measure: solubility (mole fraction)
Lab note: jot the number down without any unit.

QUERY: Please look up its solubility (mole fraction): Cc1cc(C)c(C(=O)P(=O)(c2ccccc2)c2ccccc2)c(C)c1
RESULT: 0.0895

====

Conditions Used: in ethyl acetate, 288.15 K
Outcome Measure: solubility (mole fraction)
Lab note: jot the number down without any unit.

QUERY: Please look up its solubility (mole fraction): Cc1cc(C)c(C(=O)P(=O)(c2ccccc2)c2ccccc2)c(C)c1
RESULT: 0.0819

====

Conditions Used: in isobutanol, 283.15 K
Outcome Measure: solubility (mole fraction)
Lab note: jot the number down without any unit.

QUERY: Please look up its solubility (mole fraction): Cc1cc(C)c(C(=O)P(=O)(c2ccccc2)c2ccccc2)c(C)c1
RESULT: 0.109
